# activity (max response) values compiled below
test: Cellular viability qHTS for adrenocortical cancer (ACC) cell line SW-13 (AID 1963989);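 further: cells grown in serum-free medium with ITS supplement; on the % scale 0 is the no-effect control and ±100 the full control effect; nearly all actives have a fitted effect of over 65% in size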
conditionSummary: SW-13 ACC cells viability, CellTiter-Glo, 48 h; stronger effect = lower value
Results filed as inconclusive are left out.
valueType: activity (max response) (%)

INSERT INTO assay_data (molecule, valuetype, u, reportedvalue) VALUES
  ('CC(Oc1ccc(O)cc1)(P(=O)(O)O)P(=O)(O)O', 'activity (max response)', '%', 1.35),
  ('O=c1ncccn1[C@@H]1O[C@H](CO)[C@@H](O)[C@H]1O', 'activity (max response)', '%', -5.69),
  ('CCCCCCCCCCCCOCCO', 'activity (max response)', '%', 0.306),
  ('Nc1ccn([C@H]2CC[C@@H](CO)O2)c(=O)n1', 'activity (max response)', '%', 0.291),
  ('O=[N+]([O-])c1ccc(-c2nc(-c3ccc(F)cc3)c(-c3ccncc3)[nH]2)cc1', 'activity (max response)', '%', -1.63),
  ('Cc1cc(=O)oc2cc(O[C@@H]3SC[C@@H](O)[C@H](O)[C@H]3O)ccc12', 'activity (max response)', '%', 12.3),
  ('CCN[C@H]1CN(CCCOC)S(=O)(=O)c2sc(S(N)(=O)=O)cc21', 'activity (max response)', '%', 7.66),
  ('CCOc1ccc(C(=O)OCCN(CC)CC)cc1', 'activity (max response)', '%', -4.6),
  ('COc1ccc(Cc2cnc(N)nc2N)cc1OC', 'activity (max response)', '%', 8.41),
  ('CCOC(=O)C(C)Oc1cccc2c(=O)n(CC(=O)Nc3ccc4c(c3)OCCO4)ccc12 (stereo unspecified)', 'activity (max response)', '%', 14.3),
  ('Cc1cncc2cccc(S(=O)(=O)N3CCCN(C(=O)CN)C[C@@H]3C)c12', 'activity (max response)', '%', -18.3),
  ('O=C(Nc1ccc([N+](=O)[O-])cc1)Nc1ccc([N+](=O)[O-])cc1', 'activity (max response)', '%', 3.91),
  ('N[C@@H](CSSC[C@H](N)C(=O)O)C(=O)O', 'activity (max response)', '%', 5.04),
  ('NC[C@H]1O[C@H](O[C@H]2[C@H](O)[C@@H](O[C@H]3O[C@H](CO)[C@@H](O)[C@H](N)[C@H]3O)[C@H](N)C[C@@H]2N)[C@H](N)C[C@@H]1O', 'activity (max response)', '%', 4.38),
  ('CCc1cccc2c(CCO)c[nH]c12', 'activity (max response)', '%', 12.9),
  ('COc1cc(C)nc(-n2nc(C)cc2OC)n1', 'activity (max response)', '%', 11),
  ('CC(=O)[C@]1(N)Cc2c(O)c3c(c(O)c2[C@@H](O[C@H]2C[C@H](O)[C@H](O)CO2)C1)C(=O)c1ccccc1C3=O', 'activity (max response)', '%', -6.73),
  ('O=c1[nH]c2ccccc2c(=O)n1CCCl', 'activity (max response)', '%', 10.7),
  ('CC(C)Cc1ccc(C(C)C(=O)OCc2ccccn2)cc1 (stereo unspecified)', 'activity (max response)', '%', 14),
  ('COc1ccc2c(Oc3ccc(NC(=O)c4c(C)n(CC(C)(C)O)n(-c5ccccc5)c4=O)nc3)ccnc2c1', 'activity (max response)', '%', -3.94),
  ('CC(=O)OCC[N+](C)(C)C', 'activity (max response)', '%', 10.9),
  ('CCCCn1c(=O)n(Cc2ccccc2F)c(=O)c2[nH]c(Cc3ccc(NC(C)=O)cc3)nc21', 'activity (max response)', '%', -3.74),
  ('NC(=Nc1ccccc1)Nc1ccccc1', 'activity (max response)', '%', -1.07),
  ('CC(C)(O)C1CCC(Nc2ccc3ncc(-c4cccc(C(F)(F)F)c4)n3n2)CC1 (stereo unspecified)', 'activity (max response)', '%', -17.2),
  ('O=C(c1ccco1)N1CCNCC1', 'activity (max response)', '%', -4.62),
  ('CC(=O)Nc1ccc(C(=O)O)cc1', 'activity (max response)', '%', 11.7),
  ('COC(=O)N[C@H](C(=O)N[C@@H](Cc1ccccc1)[C@@H](O)CN(Cc1ccc(-c2ccccn2)cc1)NC(=O)[C@@H](NC(=O)OC)C(C)(C)C)C(C)(C)C', 'activity (max response)', '%', -5.43),
  ('Cc1ncc(COP(=O)(O)O)c(C=O)c1O', 'activity (max response)', '%', 7.84),
  ('CC[C@H](C)C(=O)O[C@H]1C[C@H](O)C=C2C=C[C@H](C)[C@H](CC[C@@H](O)C[C@@H](O)CC(=O)O)[C@H]21', 'activity (max response)', '%', -19.4),
  ('NC(=O)c1ccc(N(C(N)=O)c2c(F)cccc2F)nc1-c1ccc(F)cc1F', 'activity (max response)', '%', -4.37),
  ('O=C(O)CCNc1cc(N2CCc3ccccc3CC2)nc(-c2cccnc2)n1', 'activity (max response)', '%', -9.23);

---

test: Quantitative highthroughput screen to assess conditional lethalithy of P12 Ichikawa cells grown in RPMI1640 with dialyzed fetal bovine serum (RPMI+ds) (AID 1963880); further: nearly all actives have a fitted effect of over 35% in size;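 on viability: 100% = DMSO wells and 0% = empty wells on each plate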
conditionSummary: ATP luminescence, 48 h; P12-Ichikawa viability; series mostly up to 45.8 µM
Results filed as inconclusive are left out. The source made the active and inactive calls. Calls follow the shape of the dose curve; as a rule, active = well fitted cell-killing curve with a large enough effect; inconclusive = small, poorly fitted or top-dose-only effect; inactive = flat fitted curve, though single readings scatter.
Outcomes: active, inactive

INSERT INTO assay_data (molecule, assignedlabel) VALUES
  ('CC(C)C1CCC(C(=O)N[C@H](Cc2ccccc2)C(=O)O)CC1 (stereo partly specified)', 'inactive'),
  ('C#C[C@]1(O)CC[C@@H]2[C@@H]3CCc4cc(O)ccc4[C@H]3CC[C@@]21C', 'active'),
  ('O=C(O)Cc1cccc(OCCCN(Cc2cccc(C(F)(F)F)c2Cl)CC(c2ccccc2)c2ccccc2)c1', 'inactive'),
  ('O=C(O)c1cccnc1Nc1cccc(C(F)(F)F)c1', 'inactive'),
  ('CCn1c(C(=O)N(C2CC2)C2CC2)cc2c3c(ncn3C)c(Nc3cc(C)n(C)n3)nc21', 'inactive'),
  ('Cc1cc(Nc2ncc(Cl)c(Nc3ccccc3S(=O)(=O)C(C)C)n2)c(OC(C)C)cc1C1CCNCC1', 'active'),
  ('N[C@H](CSC(c1ccccc1)(c1ccccc1)c1ccccc1)C(=O)O', 'inactive'),
  ('Nc1nc(=S)c2[nH]cnc2[nH]1', 'active'),
  ('O=c1oc2cc(O)ccc2s1', 'inactive'),
  ('CCOC(=O)[C@H](CCc1ccccc1)N[C@@H](C)C(=O)N1CCCC1C(=O)O (stereo partly specified)', 'inactive'),
  ('CNS(=O)(=O)CCc1ccc2[nH]cc(C3CCN(C)CC3)c2c1', 'inactive'),
  ('O=C(Nc1cccnc1)N1CCC(Cc2cccc(Oc3ccc(C(F)(F)F)cn3)c2)CC1', 'active'),
  ('C[C@H](Cn1cnc2c(N)ncnc21)OCP(=O)(O)O', 'inactive'),
  ('CC(C)OC(=O)C(C)(C)Oc1ccc(C(=O)c2ccc(Cl)cc2)cc1', 'inactive'),
  ('CC(C)C[C@H](NC(=O)[C@H](Cc1ccccc1)NC(=O)c1cnccn1)B(O)O', 'active'),
  ('CCn1cc(C(=O)O)c(=O)c2cc(F)c(N3CCN(C)CC3)cc21', 'active'),
  ('Cc1ccc(NC(=O)c2cccc(N(C)C)c2)cc1NC(=O)c1ccc(O)cc1', 'inactive'),
  ('CC(=O)c1cnc2ccc(-c3cc(Cl)c(O)c(Cl)c3)nc2c1NC1CCC(CN(C)C)CC1 (stereo unspecified)', 'active'),
  ('Nc1ccn(C[C@@H](CO)OCP(=O)(O)O)c(=O)n1', 'inactive'),
  ('O=c1cc(-c2ccccc2)oc2cc(O)cc(O)c12', 'active'),
  ('CC(=O)C1=C(O)C=C2Oc3c(C(C)=O)c(O)c(C)c(O)c3C2(C)C1=O (stereo unspecified)', 'active'),
  ('O=C1c2c(O)cc(O)cc2OC(c2ccc(O)c(O)c2)C1O (stereo unspecified)', 'inactive'),
  ('CNC(=O)CN1CCC(Oc2cc3c(Nc4cccc(Cl)c4F)ncnc3cc2OC)CC1', 'active'),
  ('OCCN1C[C@H](O)[C@@H](O)[C@H](O)[C@@H]1CO', 'active'),
  ('COc1cc2c(NC3CCN(C(C)C)CC3)nc(C3CCCCC3)nc2cc1OCCCN1CCCC1', 'active'),
  ('CCOc1cc2c(c(F)c1OCC)C(=N)N(CC(=O)c1cc(N3CCOCC3)c(OC)c(C(C)(C)C)c1)C2', 'inactive');

---

test: Cellular viability qHTS for adrenocortical cancer (ACC) cell line SW-13 (AID 1963989);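 further: cells grown in serum-free medium with ITS supplement; on the % scale 0 is the no-effect control and ±100 the full control effect; nearly all actives have a fitted effect of over 65% in size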
conditionSummary: SW-13 ACC cells viability, CellTiter-Glo, 48 h; stronger effect = lower value
Records with an inconclusive call do not appear.
Overview of recorded activity (max response) for various molecules
valueType: activity (max response) (%)

INSERT INTO results (molecule, reportedvalue) VALUES
  ('O=C(c1ccccc1)c1ccccc1', 13.9),
  ('O=C(Nc1c(Cl)cncc1Cl)c1ccc(OC(F)F)c(OCC2CC2)c1', 5.46),
  ('COc1nc(C)nc(Cl)c1NC1=NCCN1', -1.64),
  ('C[C@H](CN(C)C)Oc1nc(Nc2cc3cccc(Cl)c3cn2)cnc1C#N', -6.08),
  ('CC(=O)Nc1ccc(C(=O)NC(C)(C)C)cc1', -16.7),
  ('Cc1c(F)cccc1NC(=O)Nc1ccc(Cl)c(S(=O)(=O)[C@H]2CCCNC2)c1O', -7.46),
  ('CCN1CCc2nc(N)oc2CC1', 7.47),
  ('c1cc(-c2sc(-c3ccncc3)c(-c3ccncc3)c2-c2ccncc2)ccn1', 2.5),
  ('CC(C)N(C[C@H]1O[C@@H](n2cnc3c(N)ncnc32)[C@H](O)[C@@H]1O)C1CC(CCc2nc3ccc(C(C)(C)C)cc3[nH]2)C1 (stereo partly drawn)', 7.65),
  ('CCCNC(C)C(=O)Nc1c(C)csc1C(=O)OC (stereo not drawn)', 8.19),
  ('CC(=O)CCC(=O)O', 9),
  ('CO[C@H]1/C=C/O[C@@]2(C)Oc3c(C)c(O)c4c(O)c(c(/C=N/N5CCN(C)CC5)c(O)c4c3C2=O)NC(=O)/C(C)=C\C=C\[C@H](C)[C@H](O)[C@@H](C)[C@@H](O)[C@@H](C)[C@H](OC(C)=O)[C@@H]1C', -27.5),
  ('CN1CCN(c2c(F)cc3c(=O)c(C(=O)O)cn4c3c2OCN4C)CC1', -1.01);
